Recorded values, source paper PMC7473865.

TARGET_DESC: yeast-displayed HLA-DR401 (Homo sapiens, UniProt P01903+P01911, A100K/A169T/D72E/F76Y/I96L/K127E/L162R/M171V/M61L/P40V/Q125Y/R42H/S133A/S149N/S66Y/V115G/V157M/V209L/W38E)
Sequence (P01903 26-216 M61L/V157M limits assumed): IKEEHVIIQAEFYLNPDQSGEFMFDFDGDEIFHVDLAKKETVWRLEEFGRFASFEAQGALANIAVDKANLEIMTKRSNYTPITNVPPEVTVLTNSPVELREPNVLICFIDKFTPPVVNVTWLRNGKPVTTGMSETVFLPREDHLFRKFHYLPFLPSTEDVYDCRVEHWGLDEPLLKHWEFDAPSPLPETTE
Sequence (P01911 30-227 with the stated changes limits assumed): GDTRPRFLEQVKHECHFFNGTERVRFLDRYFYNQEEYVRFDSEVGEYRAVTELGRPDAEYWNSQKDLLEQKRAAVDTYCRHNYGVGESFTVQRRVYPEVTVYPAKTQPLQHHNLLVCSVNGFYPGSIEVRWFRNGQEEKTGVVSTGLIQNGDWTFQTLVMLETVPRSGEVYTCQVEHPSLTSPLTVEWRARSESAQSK
METHOD_NOTES: Yeast-display randomized peptide library selection and deep sequencing, HLA-DR401
Assay type: binding
Parameters: key: 1=binder; 0=non-binder
ASSAY_SETUP: Fig6B data set
MEASURED_METRIC: label (1=binder, 0=non-binder)
Lab note: jot the number down without any unit.

Completed entries (count: 2):
AAADARCSNRSDLMGGSGGG; 0
AAANWSSSPDMPLVGGSGGG; 0

Query: Entry AAAMQRRNPALLLFGGSGGG : reported label (1=binder, 0=non-binder) = ?
Reply: 0

Query: Given AAALSTSWLFCSRCGGSGGG , state its recorded label (1=binder, 0=non-binder).
Reply: 0

Query: Value lookup for label (1=binder, 0=non-binder); key = AAAKYRLHVKSGWSGGSGGG
Reply: 0
